# target_system: T1, Avi/His-HuIL18BPa (recombinant human IL-18BP isoform A with Avi and poly-His tags) (human, biotinylated with BirA on the Avi tag in some assays)
# T1 chain: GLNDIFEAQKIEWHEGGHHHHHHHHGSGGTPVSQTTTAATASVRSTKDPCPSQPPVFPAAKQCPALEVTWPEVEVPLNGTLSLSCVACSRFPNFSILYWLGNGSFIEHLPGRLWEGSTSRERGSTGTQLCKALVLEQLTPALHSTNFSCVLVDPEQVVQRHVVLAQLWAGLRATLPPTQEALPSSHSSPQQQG
# procedure_details: cell-based or functional assay
assay_endpoint: EC50 of IFNγ release, human PBMC (nM)
Hi! Could you send only the number? It should be in nM, unit omitted.

>>> reading("anti-IL18BP antibody BP-15 (antibody, human IgG1, V domains shown) VH: QVQLVQSGAEVKKPGASVKVSCKASGYTFTTYDINWVRQAPGQGLEWMGIINPSGGSTSYAQKFQGRVTMTRDTSTSTVYMELSSLRSEDTAVYYCATGIGELDFDYWGQGTLVTVSS VL: DIQMTQSPSSLSASVGDRVTITCRASQSISSYLNWYQQKPGKAPKLLIYKASTLHNGVPSRFSGSGSGTDFTLTISNLQPEDFATYYCQQAISFPLTFGGGTKVEIK")
100
>>> reading("anti-IL18BP antibody BP-16 (antibody, human IgG1, V domains shown) VH: QVQLVQSGAEVKKPGASVKVSCKASGYTFTTYDINWVRQAPGQGLEWMGIIGSYGGATSYAQKFQGRVTMTRDTSTSTVYMELSSLRSEDTAVYYCATAEEELRFDYWGQGTLVTVSS VL: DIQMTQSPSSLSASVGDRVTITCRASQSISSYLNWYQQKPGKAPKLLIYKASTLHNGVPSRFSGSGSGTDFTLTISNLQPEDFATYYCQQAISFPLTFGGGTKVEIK")
1.66
>>> reading("anti-IL18BP antibody BP-02 (antibody, human IgG1, V domains shown) VH: EVQLQQSGPELVKPGASVKIPCKASGYTFTDYNMDWVKQSHGKSLEWIGNINTNNGGTVYNQKFKGKATLTVDKSSSTAYMELRSLTSEDTAVYYCARSDTTVVASRYYAMDYWGQGTSVTVSL VL: DIVLTQSPASLAMSLGKRATISCRASESVSIIATNLIHWYQQKPGQPPKLLIYHASNLETGVPARFSGSGSRTDFTLTIDPVEKDDVAIYYCLQSRKIPPTFGGGTKLEIK")
0.75
>>> reading("anti-IL18BP antibody BP-14 (antibody, human IgG1, V domains shown) VH: QVQLVQSGAEVKKPGASVKVSCKASGYTFTGYYMHWVRQAPGQGLEWMGIINPRGGSTSHAQKFQGRVTMTRDTSTSTVYMELSSLRSEDTAVYYCARGLELHWFDPWGQGTLVTVSS VL: DIQMTQSPSSLSASVGDRVTITCRASQNIRSWLAWYQQKPGKAPKLLIYAASSLQSGVPSRFSGSGSGTDFTLTISSLQPEDFATYYCQQANSFPYTFGQGTKLEIK")
3.47

Proceeding to the next binder to report its EC50 of IFNγ release, human PBMC.
Summary for this binder, anti-IL18BP antibody BP-05 (antibody, human IgG1, V domains shown) VH: EVQLQQSGPELVKPGASVKIPCKASGYTFTDYNMDWVKQSHGKSLEWIGNINTNNGGTVYNQKFKDKATLTVDKSSSTAYMELRSLTSEDTAVYYCARSDTTVVASRYYALDYWGQGTSVTVSS VL: DIVLTQSPASLAMSLGKRATISCRASESVSIIGTDLIHWYQQKPGQPPKLLIYHASNLETGVPARFSGSGSRTDFTLTIDPVEEDDVAIYYCLQSRKIPPTFGGGTKLEIK : EC50 of IFNγ release, human PBMC is 1.33
